- Tested on: OVCAR-8
- Experiment Description: NCI tumour cell line growth inhibition, 48 h
The source made the active and inactive calls. No stated cut-off is given here; in the data, active = GI50 up to about 1.1 µM and inactive = higher.
Field: GI50. Provide a value for each of the compounds that follow.

-- ask Provide measured GI50 value, entry: CC(=O)SCCC(NC(=S)Nc1ccccc1)P(=O)(Oc1ccccc1)Oc1ccccc1 (stereo unspecified)
-- reply > 100 µM (inactive)

-- ask Dear colleague, please send me the reported GI50 for Cc1ccc(-c2cc(C(F)(F)F)nn2-c2ccc(S(N)(=O)=O)cc2)cc1 when you can.
-- reply 19.7 µM (inactive)

-- ask Give the measured GI50 for CC(C)CC(NC(O)[BH2-][N+](C)(C)C)C(=O)NC(Cc1ccccc1)C(=O)N[C@H]1c2ccsc2/C(=N/O)[C@H]1O (stereo partly specified)
-- reply > 100 µM (inactive)

-- ask Note down GI50 recorded for COc1cc(O)c2c(=O)c3ccccc3n(C)c2c1
-- reply 18.7 µM (inactive)

-- ask Assign GI50 to the following record: COc1ccccc1-c1csc(CCC(N)C(=O)O)n1 (stereo unspecified)
-- reply > 100 µM (inactive)

-- ask Look up and state reported GI50 for CCOC(=O)C(=O)Nc1ccccc1C(F)(F)F
-- reply > 100 µM (inactive)

* * *

- Tested on: SK-OV-3
- Experiment Description: NCI tumour cell line growth inhibition, 48 h
The source made the active and inactive calls. No stated cut-off is given here; in the data, active = GI50 up to about 1.1 µM and inactive = higher.
Permitted responses: active, inactive

-- ask Test call, this compound: Cn1c2c(c3ccccc31)CCN(CCCCN1CCc3c(n(C)c4ccccc34)C1=O)C2
-- reply inactive

-- ask Recorded test call requested for CCN(CC)CCC(=O)c1ccc(Cl)c(Cl)c1
-- reply inactive

-- ask Could you kindly confirm the outcome this assay logged for C/C(=N\c1ccc(N(C)C)cc1)c1ccccc1 ?
-- reply inactive

-- ask Dear all, I need the recorded test outcome for COCOc1cc(OC)ccc1C=O , thank you.
-- reply inactive

-- ask Look up the recorded call for Oc1ccc(/C=C/c2ccc3cccc(O)c3n2)cc1O in this test.
-- reply inactive

-- ask What call does the record list for CC12CC3(O)OC(O1)C1(COC(=O)c4ccccc4)C3CC21OC1OC(CO)C(O)C(O)C1O (stereo not given) ?
-- reply inactive

-- ask Each compound tested received a call. Report the one for O=c1c2cc(S(=O)(=O)O)ccc2nc(COc2ccc(Oc3ccc(Cl)cc3Cl)cc2)n1-c1ccc(Oc2ccc(Cl)cc2)cc1Cl .
-- reply inactive

-- ask I would be grateful if you could indicate the recorded call for Cc1cc(C)c(/N=N/c2c(O)c(S(=O)(=O)O)cc3cc(S(=O)(=O)O)ccc23)cc1C .
-- reply inactive

-- ask Assay outcome for [O-]c1c2cc(-[n+]3c(-c4ccccc4)cc(-c4ccccc4)cc3-c3ccccc3)cc1CO[C@@H](c1ccccc1)[C@H](c1ccccc1)OCc1cccc(n1)CO[C@@H](c1ccccc1)[C@H](c1ccccc1)OC2 : what was it?
-- reply active

-- ask Could you kindly confirm the outcome this assay logged for O=C1CCCC(=O)N1n1c(Cc2ccc(Cl)cc2)n[nH]c1=O ?
-- reply inactive

-- ask Recorded test outcome, item CC(C)(C)N1Cc2ccccc2/C(=C/Sc2ccccc2)C1=O
-- reply inactive

-- ask Entry O=C1Nc2ccccc2C12CCCC2 : call = ?
-- reply inactive

-- ask Which outcome was assigned to N#CCc1ccc(C(C#N)/C(CCCC(=O)Nc2cccc([N+](=O)[O-])c2)=N/NC(N)=S)cc1 (stereo not given) in this test?
-- reply inactive

-- ask Recorded test call requested for COC(=O)C(C(=O)C(=O)Nc1ccc(C)cc1)c1nc2ccc([N+](=O)[O-])cc2nc1O (stereo not given)
-- reply inactive

-- ask Could you check what this test reported for O=C(OCc1ccc([N+](=O)[O-])cc1)N1c2ccccc2[C@@]23O[C@]24CCC[C@H]3C#C/C=C\C#C[C@H]14 ?
-- reply inactive

* * *

- Tested on: NCI-H23
- Experiment Description: NCI tumour cell line growth inhibition, 48 h
Activity calls are given as the source filed them. No stated cut-off is given here; in the data, active = GI50 up to about 1.1 µM and inactive = higher.
For each record, write down the corresponding GI50.

-- ask Entry CC(=O)Nc1ccc(-c2nnc(SCC(=O)Nc3ccccc3Cl)o2)cc1 needs its GI50 filled in; supply it.
-- reply > 100 µM (inactive)

-- ask Return reported GI50. Input molecule: O=C1C(NCCF)=C(Cl)C(=O)c2ncccc21
-- reply 0.653 µM (active)

-- ask For the molecule NS(=O)(=O)c1ccc(NCc2cnc3ccccc3n2)cc1 , give its measured GI50 value.
-- reply > 100 µM (inactive)

-- ask Give me measured GI50, please, for this molecule: COC(=O)c1c(C)cccc1C1CN=NC12Cc1cc(C)cc(C)c1C2=O (stereo not given)
-- reply 20.7 µM (inactive)

-- ask Quickly give me recorded GI50 for Cc1nn(C(=O)c2ccc(Cl)cc2)c2c1C(c1ccccc1)SC(=N)N2 (stereo not given)
-- reply > 10 µM (inactive)

* * *

- System: HT-29
- Experiment Description: NCI tumour cell line growth inhibition, 48 h
Active and inactive are the calls of the source. Cut-off read from the data, not from the text of the source: active = GI50 up to about 1.1 µM and inactive = higher.
Assign a class; possible classes are active, inactive

-- ask Look up the recorded call for CC(C(=O)c1ccccc1)C(c1ccccc1)N1CCOCC1 (centres undefined) in this test.
-- reply inactive

-- ask Call for entry O=C(Nc1ccccc1F)c1c(O)nc2sccn2c1=O :
-- reply inactive

-- ask Recorded call for O=C1CCc2cc3c(cc21)C(C(=O)O)CC3 (centres undefined) ?
-- reply inactive

-- ask Hello, I am checking results. What call was entered for Cc1nc2c(O)c3c(c(O)c2nc1C)C1C=CC3CC1 ?
-- reply inactive

-- ask Test call, this compound: O=C([O-])C(O)C(O)C(=O)O.[K+] (centres undefined) [POTASSIUM HYDROGENTARTRATE]
-- reply inactive

-- ask I'd appreciate the recorded outcome for COc1cc(Nc2c(C#N)[n+]([O-])c3ccccc3[n+]2[O-])cc(OC)c1OC from this test.
-- reply inactive

-- ask Which result was noted for this compound in the test: CC(=O)c1c(P(=O)(OC(C)C)OC(C)C)nn(-c2ccc([N+](=O)[O-])cc2)c1C
-- reply inactive

-- ask Given CN1CCN(Cc2cc3c(nn2)-c2ccccc2C3=O)CC1 , state the outcome it received in this test.
-- reply inactive

-- ask What outcome does the record of this test show for COC(NC(=O)Nc1ccc(C)cc1)(C(F)(F)F)C(F)(F)F ?
-- reply inactive

-- ask Write down the call the test reported for this compound. Item: CC1(C)CN=C(Nc2ccc(F)c(F)c2)S1
-- reply inactive

-- ask Entry N=C1C(O)C2(I)c3ccccc3N3C(=N)C(O)C4c5ccccc5N1C4C32 (centres undefined) : call = ?
-- reply inactive

-- ask Please let me know the test result on file for C[N+](C)(C)CC(=O)N/N=C/c1oc(-c2cccc([N+](=O)[O-])c2)c(-c2cccc([N+](=O)[O-])c2)c1[N+](=O)[O-] .
-- reply inactive

-- ask # lookup: test call for CC(C)(c1ccc(C=O)o1)c1ccc(C(C)(C)c2ccc(C=O)o2)o1
-- reply inactive

-- ask Name the outcome recorded for Cc1cc2c(cc1C)[n+]([O-])c(C(=O)C/C(=N/NC(=O)CC#N)C(=O)Nc1ccccc1C(F)(F)F)c(C)[n+]2[O-] in the assay.
-- reply inactive

-- ask What classification did O=C(Nc1cccc2nsnc12)c1cc2c(cc1Cl)Sc1nccn1S2(=O)=O end up with in this test?
-- reply inactive

-- ask Query: recorded result category for CN1CCc2c(sc3ncn(C)c(=N)c23)C1 in this test
-- reply inactive

-- ask Entry Cc1ccc(C(=O)OC(C)C)cc1/N=N/N(C)C : call = ?
-- reply inactive

-- ask How did this test come out for C/C(=N\c1ccc(N(C)C)cc1)c1ccccc1 ?
-- reply inactive

-- ask Could you kindly confirm the outcome this assay logged for [N-]=[N+]=Nc1c(C=O)c(=O)n(-c2ccccc2)c2ccccc12 ?
-- reply inactive

-- ask Call for entry NC1=NS(=O)(=O)Nc2[nH]c(-c3ccccc3)nc21 :
-- reply inactive

-- ask Query: recorded result category for Cc1nn(C(=O)Cc2ccccc2)c2c1C(c1ccccc1[N+](=O)[O-])SC(=N)N2 (centres undefined) in this test
-- reply inactive

-- ask Please share the test call associated with O=c1[c-](-c2ccccc2)[se]c(-c2ccccc2)[n+]1-c1ccccc1 .
-- reply inactive

-- ask Record request — test call for COc1ccc2nccc(C3OC(=O)N4CCC(=O)CC34)c2c1 (centres undefined)
-- reply inactive

-- ask What did the test return for N#Cc1ccc(/N=C(/NCC(=O)O)Nc2cccc3ccccc23)cc1 ?
-- reply inactive

-- ask Field: outcome | Entry: Cc1cccc2nc3cccc(C(=O)NCCN(C)C)c3nc12
-- reply active

-- ask Kindly provide the recorded test outcome for the following compound: C=C[C@]1(C)CC(=O)C(C(C)C=O)[C@]12C(=O)Oc1cccc(C)c1C2=O (some centres undefined)
-- reply inactive

-- ask Hey, what did the test say about CCCCCCc1cc2cc(-c3cn4ccccc4n3)c(=O)oc2cc1O ?
-- reply inactive

-- ask In this assay, the call recorded for CC1(C)COC(c2cccc3c2C(=O)c2cccc(Cl)c2-3)=N1 was what?
-- reply inactive

-- ask Write down the call the test reported for this compound. Item: CCOC(=O)c1nc2ccccc2nc1Oc1cc(OC)cc(OC)c1
-- reply inactive

-- ask Look up the recorded call for CC(C)(C)OC(=O)NCCCNC1(c2cc3ccccc3s2)CCCCC1 in this test.
-- reply inactive

-- ask Per the assay record, what outcome was assigned to O=C1CCCC(=O)N1n1c(Cc2ccc(Cl)cc2)n[nH]c1=O ?
-- reply inactive

-- ask For Cc1ccc(CC(=O)Nc2ccc(NC(=O)/C=C/NC(=O)/C=C/c3ccc(-c4ccccc4)cc3)cc2C(=O)c2ccccc2)cc1 , what call appears in the results of this test?
-- reply inactive

-- ask Assay result, entry CCCC(=O)OC1C(C(O)CO)OC2OC(C)(C)OC21 (centres undefined) — outcome?
-- reply inactive

-- ask Hey, what did the test say about CN(C)c1ccc(/N=N/c2ccc3[nH]cnc3c2)cc1 ?
-- reply inactive
